system: TK-10 renal; experiment: NCI-60 one-dose screen, 48 h (100 = growth as untreated, 0 = no growth, -100 = all killed); details: 10 µM unless noted
This is part of a sample that, as a whole, favours compounds with a hit. Of some 83,000 tested, about 20% had one in any assay. Calls of active or inactive are those of the source. Rule for the calls: active = growth percent below 10; inactive = the rest.
growth values, listed per item

Field: example entries. Status: answers known.
**Q:** Would you kindly share the measured growth for "O=C(CC(CC(=O)c1ccccc1)c1ccccn1)c1ccccc1" ?
**A:** 123% (inactive)

**Q:** Which measured growth value corresponds to "O=c1cc(C(F)(F)F)[nH]c(=S)[nH]1" ?
**A:** 97.7% (inactive)

**Q:** Reported growth, compound CC1CCC(C)(C)c2ccccc21 (configuration not stated) : ____
**A:** 104% (inactive)

**Q:** Recorded growth of "Oc1ccc2ccccc2c1CN1CCOCC1" , please.
**A:** 123% (inactive)

**Q:** Which growth is listed for "CC1(C)CCC(C)(C)NC(=S)N1" ?
**A:** 98% (inactive)

**Q:** // growth lookup, key: "CCOC(=N)CC(=O)Nc1cccc(C)c1Cl"
**A:** 113% (inactive)

We next turn to a different compound, shown below.
**Q:** I have this compound here, CCC12OC(COc3ccccc3)CN1CCN2c1ccccc1 (configuration not stated) , and I need its recorded growth.
**A:** 146% [100 µM] (inactive)

====

test system: NCI-H23 lung; test: NCI-60 one-dose screen, 48 h (100 = growth as untreated, 0 = no growth, -100 = all killed); details: 10 µM unless noted
Compounds without any hit were thinned out: in the full panel of roughly 83,000, 20% have a hit.
Quick list: growth per entry.
API: value field is a number in %; no unit string.

Would you please look over these solved cases?
**Q:** Please report the recorded growth for "O=Cc1ccc(Cl)c(Cl)c1" .
**A:** 99.1

**Q:** If you can, please state the reported growth value of "Cn1c(=O)[nH]c2ccccc2c1=O" .
**A:** 104

**Q:** Consider the compound CCCC(OC(C)=O)c1ccc2c(c1)OCO2 (configuration not stated) and give its measured growth.
**A:** 97.7

**Q:** If you can, please state the reported growth value of "CNc1ccccc1C(N)=O" .
**A:** 99

**Q:** # growth lookup, item "CC(=O)C[n+]1ccc(C)cc1Sc1ccccc1C"
**A:** 91

Next:
**Q:** Given OCC1OC(n2ccc3c2ncn2ncnc32)C(O)C1O (configuration not stated) , state its recorded growth.
**A:** 35.8

**Q:** What does the data say about its growth? Entry: "N#C/C(=C\NC(=S)N=Nc1c(O)[nH]c2ccccc12)c1nc2ccccc2s1"
**A:** 94.7

====

system: NCI-H460 lung; assay: NCI-60 one-dose screen, 48 h; conditions: 10 µM unless noted
Compounds without any hit were thinned out: in the full panel of roughly 83,000, 20% have a hit. Activity calls are given as the source filed them. The calls were made as follows: active = growth percent below 10; inactive = the rest.
Answer with one of the outcomes given here: active, inactive

Examples from the recorded data:
**Q:** Tell me the recorded outcome of this test for "C=C(c1ccc(N(C)C)cc1)c1ccc(N(C)C)cc1" .
**A:** active

**Q:** Name the outcome recorded for "Cc1[nH]c(=S)[nH]c(=O)c1C" in the assay.
**A:** inactive

**Q:** Please let me know the test result on file for "CCOC(=O)CNC" .
**A:** inactive

**Q:** For CC(=O)C1C(=O)C(=O)N(c2cccc([N+](=O)[O-])c2)C1=O (configuration not stated) , what call appears in the results of this test?
**A:** inactive

**Q:** Which result was noted for this compound in the test: "CCOC(=O)C1(N)CCCCC1"
**A:** inactive

**Q:** Please let me know the test result on file for "CC(C)C(C)(C)C(=O)C(C)(C)C(C)(C)C" .
**A:** inactive

**Q:** Recorded call for "O=Cc1ccc(F)cc1" ?
**A:** inactive

**Q:** Would you mind telling me which call this test gave Nc1ncnc2c1ncn2C1OC(CO)C2OC21 (configuration not stated) ?
**A:** inactive

**Q:** Name the outcome recorded for "Nc1ccc2ccccc2c1-c1c(N)ccc2ccccc12" in the assay.
**A:** inactive

**Q:** Outcome? "Cc1ccc([N+](=O)[O-])c(C)n1"
**A:** inactive

Others:
**Q:** Record request — test call for "CCOC(=O)CSCCC#N"
**A:** inactive
